Target: Prostaglandin G/H synthase 1 (Ovis aries, UniProt P05979)
Sequence (P05979 whole entry): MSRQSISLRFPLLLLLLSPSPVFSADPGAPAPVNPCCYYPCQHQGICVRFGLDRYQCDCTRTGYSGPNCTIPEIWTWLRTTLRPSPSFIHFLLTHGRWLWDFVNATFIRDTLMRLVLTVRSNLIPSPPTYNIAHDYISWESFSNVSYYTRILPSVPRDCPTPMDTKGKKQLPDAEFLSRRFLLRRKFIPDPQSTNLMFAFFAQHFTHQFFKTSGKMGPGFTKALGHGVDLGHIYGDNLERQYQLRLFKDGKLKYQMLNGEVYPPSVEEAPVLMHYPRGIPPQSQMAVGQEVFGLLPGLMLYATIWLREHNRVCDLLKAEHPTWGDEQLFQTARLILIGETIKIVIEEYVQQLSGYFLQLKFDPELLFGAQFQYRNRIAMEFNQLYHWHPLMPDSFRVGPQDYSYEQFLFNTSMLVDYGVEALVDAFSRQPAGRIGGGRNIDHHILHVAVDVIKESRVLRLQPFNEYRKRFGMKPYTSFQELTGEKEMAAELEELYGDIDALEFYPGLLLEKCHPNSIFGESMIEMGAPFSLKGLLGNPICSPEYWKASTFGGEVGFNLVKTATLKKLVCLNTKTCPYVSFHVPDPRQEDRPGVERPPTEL
endpoint_label: pIC50
By convention, pIC50 is the negative base-10 log of a molar concentration.

Need pIC50 of `CS(=O)(=O)c1ccc(-n2nc(C(F)(F)F)cc2C2=CCN(CCCCO[N+](=O)[O-])CC2)cc1` , thanks.
4.46

Request: `NS(=O)(=O)c1ccc(-n2nc(C(F)(F)F)cc2C2=CCN(CCCCO[N+](=O)[O-])CC2)cc1`
4.79

----------
assay: Induction of NO release in phosphate buffer at pH 7.4; type: physicochemical
So basically, if Activity comes in under 3% it's TRUE, and if it's 3% or more it's FALSE.

Strictly below 3%: is that where Activity of `CS(=O)(=O)c1ccc(-n2nc(C(F)(F)F)cc2C2=CCN(CCCCO[N+](=O)[O-])CC2)cc1` sits?
FALSE

Request: `NS(=O)(=O)c1ccc(-n2nc(C(F)(F)F)cc2C2CCN(CCCCO[N+](=O)[O-])CC2)cc1`
TRUE

Request: O=[N+]([O-])OCC(CO[N+](=O)[O-])O[N+](=O)[O-] [NITROGLYCERIN]
TRUE

Request: `NS(=O)(=O)c1ccc(-n2nc(C(F)(F)F)cc2C2=CCN(CCCCO[N+](=O)[O-])CC2)cc1`
FALSE

Request: `CS(=O)(=O)c1ccc(-n2nc(C(F)(F)F)cc2C2CCN(CCCCO[N+](=O)[O-])CC2)cc1`
FALSE

----------
assay: Induction of NO release in presence of 5 mM L-cysteine; assay type: physicochemical
For each entry below, report its Activity value.
A number alone suffices; assume %.

Need Activity of `NS(=O)(=O)c1ccc(-n2nc(C(F)(F)F)cc2C2=CCN(CCCCO[N+](=O)[O-])CC2)cc1` , thanks.
7.1

Request: `O=[N+]([O-])OCC(CO[N+](=O)[O-])O[N+](=O)[O-]`
10.1

Request: `CS(=O)(=O)c1ccc(-n2nc(C(F)(F)F)cc2C2=CCN(CCCCO[N+](=O)[O-])CC2)cc1`
3.8

Request: `NS(=O)(=O)c1ccc(-n2nc(C(F)(F)F)cc2C2CCN(CCCCO[N+](=O)[O-])CC2)cc1`
3.1

Request: `CS(=O)(=O)c1ccc(-n2nc(C(F)(F)F)cc2C2CCN(CCCCO[N+](=O)[O-])CC2)cc1`
8.4
